Test system: YANK1
Construct: gene STK32A
Cond: concentration: 1 μM, replicates: in singlicate; n = 1;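 further: KINOMEscan kinase panel screen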
Experimental Readout: %Inh (%)
Just the number in %, nothing appended.

Examples with their reported %Inh follow.
> print(dat)
                                   molecule  experimental.readout  value.reported
1  Nc1nc(-c2ccc3c(N)n[nH]c3c2)cc(N2CCC[C@@H](C(=O)Nc3ccccc3)C2)n1.O=C(O)C(F)(F)F.O=C(O)C(F)(F)F [GSK2288359]                  %Inh               4
2  CN1c2ccc(-c3ccc(C(=O)NCCO)cc3)cc2-c2[nH]ncc2S1(=O)=O                  %Inh               0
3   O=C(Nc1ccccc1)Nc1ccc(Oc2ccc3nccn3n2)cc1                  %Inh               0
4  CC(=O)Nc1n[nH]c2ncc(-c3ccccc3)cc12 [SB-548492]                  %Inh               0

Now look at this entry.
Given the entry Fc1ccc(Nc2nccc(-c3c(-c4ccc(Cl)cc4)nn4ncccc34)n2)cc1F [GW829058] , report its measured %Inh. 0

###

The following compounds are listed with their measured %Inh values.
Test system: p38-gamma
Construct: gene MAPK12
Cond: concentration: 1 μM, replicates: in singlicate; n = 1
Just the number in %, nothing appended.

Examples with their reported %Inh follow.
> print(dat)
                                   compound  value.reported
1  Cl.Cl.c1ccc(-c2cc3ccncc3cc2OC2CCNCC2)cc1              40
2  COc1ccc(Nc2nccc(N3CCC(NC(=O)c4cccc(NC(C)=O)c4)C3)n2)cc1 (stereo not shown)               7
3  Cn1ccc2ncnc(Oc3ccc(NC(=O)Nc4cccnc4)c(Cl)c3)c21              21

Given the entry Clc1cc(Nc2ncnc3cc[nH]c23)ccc1OCc1ccccn1 , report its measured %Inh. 22

###

Tested on: CDK7
Cond: concentration: 1 μM, replicates: in singlicate; n = 1
Experimental Readout: %Inh

Examples with their reported %Inh follow.
> print(dat)
                                   compound  experimental.readout  value.reported
1  NC(=O)c1sc(-n2cnc3ccccc32)cc1OCc1ccccc1F [GSK1024306]                  %Inh              0%
2  Nc1nc(-c2ccc3c(N)n[nH]c3c2)cc(N2CCCCC2)n1 [GSK2228768]                  %Inh              0%

Given the entry Clc1cc(Nc2ncnc3cc[nH]c23)ccc1OCc1ccccn1 , report its measured %Inh. 29%

Given the entry COc1ccc(NC(=O)c2ccc(-c3cc(-c4nnc(C)o4)ccc3C)cc2)cc1 [GW595885] , report its measured %Inh. 0%

Given the entry C[C@H]1CC[C@@H](C(=O)Nc2ccccc2)CN1c1cc(-c2ccc3c(N)n[nH]c3c2)nc(N)n1 [GSK2283293] , report its measured %Inh. 0%

Given the entry Nc1nc(-c2ccccn2)c(-c2ccnc3ccccc23)s1 [GW548057] , report its measured %Inh. 2%

Given the entry Nc1nccc2scc(-c3ccc4c(c3)CCN4C(=O)Cc3cc(F)ccc3F)c12 [GSK2587663] , report its measured %Inh. 0%

Given the entry Oc1ccc2ncnc(Nc3ccc(OCc4ccccc4)cc3)c2c1 [GI262866] , report its measured %Inh. 0%

Given the entry Clc1ccc(-c2cc(-c3c[nH]nc3-c3ccccn3)ccn2)cc1 [GW681251] , report its measured %Inh. 0%

Given the entry CCn1c(-c2ccncc2)nc2cnccc21 [SB-735216] , report its measured %Inh. 6%

Given the entry O=c1cc(N2CCOCC2)nc2n(Cc3cccc(Cl)c3)ccn12 [GSK2296823] , report its measured %Inh. 0%

Given the entry COC(=O)c1cccc(NC(=O)NCCNc2ccnc(Nc3ccc(F)cc3)n2)c1 [GSK1379883] , report its measured %Inh. 0%

Entry source: paper PMC5540273
